// reported growth for each item listed
Test system: UACC-62 melanoma
Experiment: NCI-60 one-dose screen, 48 h (100 = growth as untreated, 0 = no growth, -100 = all killed)
Conditions: 10 µM unless noted
Procedure: Growth inhibition of the UACC-62 human tumor cell line is measured as a screen for anti-cancer activity. Cells are grown in 96 well plates and exposed to the test compound for 48 hours. Compounds are tested at a single concentration, which is 10^-5 M for most compounds. The reported endpoint is percent growth (GI% or GIPRCNT), where numbers from 0 - 100% represent growth inhibition, and numbers from -100% - 0 represent cell death. For example, a value of 40 represents 60% growth inhibition. […]
Compounds without any hit were thinned out: in the full panel of roughly 83,000, 20% have a hit.
Report the figure in % without appending any unit label.

Worked cases, answers included:
[
  {
    "smiles-record": "CCOC(=O)c1c(C)nc2c(c1N)CC(=O)N2Cc1ccc(F)cc1",
    "experimental-target": "UACC-62 melanoma",
    "recorded-measurement": 90.1
  },
  {
    "smiles-record": "CCC(C)(c1cc(C(C)(C)C)c(O)c(C(C)(C)C)c1)c1cc(C(C)(C)C)c(O)c(C(C)(C)C)c1",
    "experimental-target": "UACC-62 melanoma",
    "recorded-measurement": 91.8
  }
]

Query compound follows.
Input line: Quick check: growth of O=C1c2cccc3cccc(c23)C(=O)N1Nc1nc(NC2CCCCC2)nc(N2CCOCC2)n1 ?
Output line: 89.1
